tested on: C2A; test: qHTS profiling for inhibitors of Plasmodium falciparum proliferation (AID 504749); note: nearly all actives have a fitted effect of over 60% in size; settings: P. falciparum in erythrocytes, SYBR Green DNA, 72 h; series mostly up to 28.7 µM
Records with an inconclusive call do not appear. Calls of active or inactive are those of the source. Calls come from the whole dose curve; as a rule, active = well fitted inhibition curve with a large enough effect; inconclusive = small, poorly fitted or top-dose-only effect; inactive = flat fitted curve, though single readings scatter.
Mark one answer only. Choices: yes for active, no for inactive

# input Recorded test call requested for "CC1=NS(=O)(=O)c2cc(Cl)ccc2N1"
# output no

# input Recorded test call requested for "CCNC(=O)N1CCN(CCCC(c2ccc(F)cc2)c2ccc(F)cc2)CC1"
# output yes

# input Recorded test call requested for "FC(F)(F)c1ccccc1-n1ccnc1"
# output no

# input Recorded test call requested for "O=C(O)CCCCCCCC(=O)O"
# output no

# input Recorded test call requested for "CCOC(=O)c1cnc2c(cnn2CC)c1NN=C(C)C"
# output no

# input Recorded test call requested for "C#CCN(C)CCCOc1ccc(Cl)cc1Cl"
# output no

# input Recorded test call requested for COCCOC(=O)C1=C(C)NC(C)=C(C(=O)OC(C)C)C1c1cccc([N+](=O)[O-])c1 (stereo not given)
# output no

# input Recorded test call requested for "Nc1ncn([C@@H]2O[C@H](CO)[C@@H](O)[C@H]2O)c(=O)n1"
# output no

# input Recorded test call requested for "Cc1ccc(S(=O)(=O)NC(=O)NN2CCCCCC2)cc1"
# output no

# input Recorded test call requested for "CN(C)C/C=C(/c1ccc(Br)cc1)c1cccnc1"
# output no

# input Recorded test call requested for "NC/C=C/C(=O)O"
# output no

# input Recorded test call requested for "CC(=O)[C@@]1(O)CC[C@H]2[C@@H]3CCC4=CC(=O)CC[C@]4(C)[C@H]3CC[C@@]21C"
# output no

# input Recorded test call requested for "CCN1CCC[C@H]1CNC(=O)c1c(O)c(Cl)cc(Cl)c1OC"
# output no

# input Recorded test call requested for NC1=NCC2c3ccccc3Cc3ccccc3N12 (stereo not given)
# output no

# input Recorded test call requested for "CN(C)C(=O)Oc1ccc[n+](C)c1"
# output no

# input Recorded test call requested for "NC(=O)c1ncn([C@@H]2O[C@H](CO)[C@@H](O)[C@H]2O)c1O"
# output no

# input Recorded test call requested for "Cc1ccc(=O)n(-c2ccccc2)c1"
# output no

# input Recorded test call requested for "Nc1nc(N)c2nc(-c3ccccc3)c(N)nc2n1"
# output no

# input Recorded test call requested for "CCCCOCCOCCOCc1cc2c(cc1CCC)OCO2"
# output no

# input Recorded test call requested for "O=C(O)CN(CCN(CC(=O)O)CC(=O)O)CCN(CC(=O)O)CC(=O)O"
# output no

# input Recorded test call requested for "CC(=O)[C@]1(O)Cc2c(O)c3c(c(O)c2[C@@H](O[C@H]2C[C@H](N)[C@H](O)[C@H](C)O2)C1)C(=O)c1ccccc1C3=O"
# output yes

# input Recorded test call requested for "Cc1cc(C)c(/C=C2\C(=O)Nc3ccccc32)[nH]1"
# output no

# input Recorded test call requested for NC(Cc1ccc(Cl)cc1)C(=O)O (stereo not given)
# output no

# input Recorded test call requested for "COc1ccc(CN(CCN(C)C)c2ccccn2)cc1"
# output no

# input Recorded test call requested for "CN(C)C(=O)Oc1cccc([N+](C)(C)C)c1"
# output no

# input Recorded test call requested for "COCC(=O)O[C@]1(CCN(C)CCCc2nc3ccccc3[nH]2)CCc2cc(F)ccc2[C@@H]1C(C)C"
# output yes

# input Recorded test call requested for "C[n+]1cc2c3c(ccc2c2ccc4cc5c(cc4c21)OCO5)OCO3"
# output no

# input Recorded test call requested for "CC(=O)OCC1=C(C(=O)O)N2C(=O)[C@@H](NC(=O)Cc3cccs3)[C@H]2SC1"
# output no

# input Recorded test call requested for "C[C@H](CS)C(=O)N1CCC[C@H]1C(=O)O"
# output no

# input Recorded test call requested for CCn1ccnc1CC1COc2ccccc2O1 (stereo not given)
# output no

# input Recorded test call requested for "O=C1CC2(CCCC2)CC(=O)N1CCCCN1CCN(c2ncccn2)CC1"
# output no

# input Recorded test call requested for "COC(=O)[C@H]1[C@H]2C[C@@H]3c4[nH]c5cc(OC)ccc5c4CCN3C[C@H]2C[C@@H](OC(=O)c2cc(OC)c(OC)c(OC)c2)[C@@H]1OC"
# output yes

# input Recorded test call requested for "NC(=O)c1cn(Cc2c(F)cccc2F)nn1"
# output no

# input Recorded test call requested for "O=C(CCNNC(=O)c1ccncc1)NCc1ccccc1"
# output no

# input Recorded test call requested for "CCN1CCc2nc(N)oc2CC1"
# output no

# input Recorded test call requested for "C[N+](C)(C)CCOC(N)=O"
# output no

# input Recorded test call requested for "CCO/C([O-])=N/c1c[n+](N2CCOCC2)no1"
# output no

# input Recorded test call requested for "CCCCNc1ccc(C(=O)OCCN(C)C)cc1"
# output no

# input Recorded test call requested for "CC1=C(C)C(=O)C(CCCCC#CCCCC#CCO)=C(C)C1=O"
# output yes

# input Recorded test call requested for CNCCC(Oc1ccccc1OC)c1ccccc1 (stereo not given)
# output no

# input Recorded test call requested for "NC(=Nc1ccccc1)Nc1ccccc1"
# output no

# input Recorded test call requested for "NC(=O)N1c2ccccc2C=Cc2ccccc21"
# output no

# input Recorded test call requested for "Cc1nc2c([nH]1)c(=O)n(C)c(=O)n2Cc1ccco1"
# output no

# input Recorded test call requested for "CCCCNC(=O)NS(=O)(=O)c1ccc(C)cc1"
# output no

# input Recorded test call requested for "OCCN1CCN(CCCN2c3ccccc3C=Cc3ccccc32)CC1"
# output yes
